Values compiled from paper PMC5540273.

System: MAK;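 note: KINOMEscan kinase panel screen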
Settings: concentration: 1 μM, replicates: in singlicate; n = 1
Exam item: assign yes (1) to entries whose %Inh is below 8% and no (0) to entries at or above 8%. Note that a value of exactly 8% receives no (0).

Worked examples, 6 compounds total:
Cc1ccc(C(=O)NCC(N)=O)cc1-n1c(C)cc(OCc2ccc(F)cc2F)c(Br)c1=O	no (0)
O=C(Nc1n[nH]c2cc(-c3cccc(F)c3)ccc12)C1CC1	yes (1)
COC(=O)Nc1nc2cc(Oc3ccc(NC(=O)Nc4cc(F)ccc4F)cc3)ccc2[nH]1.Cl	no (0)
COc1ccc(CNC(=O)NC2CCN(c3ccnc(Nc4ccc(OC)cc4)n3)C2)cc1 (centres unmarked)	yes (1)
c1ccc(-c2cc(-c3c[nH]nc3-c3ccccn3)ccn2)cc1	yes (1)
Cc1cccc(-c2nc(-c3ccc(S(C)(=O)=O)cc3)sc2-c2ccncc2)c1	no (0)

Attention now shifts to the item below.
Req: Hello, I'm reviewing records and need to know if %Inh of O=C(Nc1cccc(-c2nn3ncccc3c2-c2ccnc(Nc3cccc(C(F)(F)F)c3)n2)c1)c1c(F)cccc1F is below 8%. Could you check?
Resp: yes (1)
